System Under Test: T1, human CEACAM5 (carcinoembryonic antigen, CEA) on cells (human, UniProt P06731 35-685)
T1 construct: endogenous on MKN45 gastric adenocarcinoma cells; full-length cDNA stably transfected in the CHO-K1 clones; also called huCEACAM5; MKN45 cells
T1 sequence: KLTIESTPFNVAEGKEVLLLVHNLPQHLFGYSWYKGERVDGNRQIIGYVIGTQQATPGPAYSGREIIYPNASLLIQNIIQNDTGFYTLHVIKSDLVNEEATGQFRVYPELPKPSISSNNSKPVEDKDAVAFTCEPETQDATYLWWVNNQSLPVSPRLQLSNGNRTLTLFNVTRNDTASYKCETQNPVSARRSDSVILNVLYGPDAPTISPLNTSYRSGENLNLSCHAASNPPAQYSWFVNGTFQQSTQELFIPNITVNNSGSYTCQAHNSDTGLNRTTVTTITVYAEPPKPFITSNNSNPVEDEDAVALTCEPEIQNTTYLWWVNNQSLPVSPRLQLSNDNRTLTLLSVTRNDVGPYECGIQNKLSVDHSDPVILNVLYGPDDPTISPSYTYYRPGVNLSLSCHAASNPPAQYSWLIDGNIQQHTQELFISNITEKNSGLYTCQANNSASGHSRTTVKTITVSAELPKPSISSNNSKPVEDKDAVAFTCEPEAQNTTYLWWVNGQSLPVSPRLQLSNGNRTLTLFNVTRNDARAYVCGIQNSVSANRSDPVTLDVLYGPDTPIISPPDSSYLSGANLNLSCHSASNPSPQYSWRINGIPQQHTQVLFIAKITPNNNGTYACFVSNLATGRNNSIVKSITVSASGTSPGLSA
Assay Info: flow cytometry, MKN45 cells
Set-up: unit not given beside the values
Quantity: AUC
Number only, no unit.

Solved entries (count: 2):
Binder	AUC
P1AE3093 (antibody, IgG1, V domains shown, huIgG1 P329G LALA; also called MFE-H26 / MFE-L29) VH: QVQLVQSGAEVKKPGASVKVSCKASGFNIKDSYMHWVRQAPGQGLEWMGWIDPENGGTNYAQKFQGRVTMTTDTSISTAYMELSRLRSDDTAVYYCNEGTPTGPYYFDYWGQGTLVTVSS VL: EIQMTQSPSSLSASVGDRVTITCRASSSVPYMHWLQQKPGKAPKLLIYSTSSLQSGVPSRFSGSGSGTDFTLTISSVQPEDFATYYCQQRSSYPLTFGGGTKLEIK	68100
P1AE3111 (antibody, IgG1, V domains shown, huIgG1 P329G LALA; also called MFE-H26 / MFE-L26) VH: QVQLVQSGAEVKKPGASVKVSCKASGFNIKDSYMHWVRQAPGQGLEWMGWIDPENGGTNYAQKFQGRVTMTTDTSISTAYMELSRLRSDDTAVYYCNEGTPTGPYYFDYWGQGTLVTVSS VL: EIQMTQSPSSLSASVGDRVTITCRASQSISSYMHWYQQKPGKAPKLLIYSTSNLASGVPSRFSGSGSGTDFTLTISSLQPEDFATYYCQQRSSYPLTFGGGTKLEIK	578

--- query ---
According to the records, this binder P1AE3096 (antibody, IgG1, V domains shown, huIgG1 P329G LALA; also called MFE-H29 / MFE-L28) VH: QVQLVQSGAEVKKPGSSVKVSCKASGFNIKDSYMHWVRQAPGQGLEWMGWIDPENGDTEYAPKFQGRVTITTDESTSTAYMELSSLRSEDTAVYYCNEGTPTGPYYFDYWGQGTLVTVSS VL: EIQMTQSPSSLSASVGDRVTITCRASSSVPYMHWLQQKPGKAPKLLIYSTSNLASGVPSRFSGSGSGTDFTLTISSVQPEDFATYYCQQRSSYPLTFGGGTKLEIK displays AUC of 87800
